System: A549
assay: Antiproliferative activity against human A549 cells by sulforhodamine B assay
Assay type: functional
assay endpoint: GI50 (µM)
Kindly provide the numeric value in µM only, without the unit symbol.

Below, 3 molecules whose answers are already recorded.
Form field: reported GI50 of C=C1[C@H]2C[C@@H]3C4N5C[C@]6(C)CCC[C@@]47[C@@H]6[C@@]5(OC(=O)c4ccc(OC)c(OC)c4)C[C@]3([C@@H]1O)[C@H]7[C@H]2OC(=O)c1ccc(OC)c(OC)c1
10

Quick one: GI50 of C=C1[C@H]2C[C@@H]3C4N5C[C@]6(C)CCC[C@@]47[C@@H]6[C@@]5(O)C[C@]3([C@@H]1O)[C@H]7[C@H]2OC(=O)c1ccc([N+](=O)[O-])cc1 ?
5.8

Dear colleague, I am looking for the recorded GI50 of the following molecule: C=C1[C@H]2C[C@@H]3C4N5C[C@]6(C)CCC[C@@]47[C@@H]6[C@@]5(OC(=O)c4ccc(OC)c(OC)c4)C[C@]3([C@@H]1OC(=O)c1ccc(OC)c(OC)c1)[C@H]7[C@H]2O
10

Shift focus to the following entry.
Field request: GI50 | item: C=C1[C@H]2C[C@@H]3C4N5C[C@]6(C)CCC[C@@]47[C@@H]6[C@@H]5C[C@]3([C@@H]1OC(=O)/C=C/c1cccc(C(F)(F)F)c1)[C@H]7[C@H]2OC(=O)/C=C/c1cccc(C(F)(F)F)c1
5.5

====

Test system: A549
assay: Antiproliferative activity against human A549 cells by sulforhodamine B assay
Assay type: functional
The following compounds are listed with their measured GI50 values.

# input compound: COC[C@]12CN(C)C3C4[C@H](OC)[C@H]1[C@@]3([C@@H](OC)C[C@H]2O)[C@@H]1C[C@@]2(O)[C@H](OC(=O)c3ccccc3)[C@@H]1[C@]4(OC)[C@@H](O)[C@@H]2OC [HOKBUSINE A] ; wanted: its GI50
> 20 µM

====

Tested on: A549
assay: Antiproliferative activity against human A549 cells by sulforhodamine B assay
Assay type: functional
Listing of recorded GI50 by entry.

Solved cases (4 shown):
// lookup GI50 for C=C1[C@H]2C[C@@H]3C4N5C[C@]6(C)CCC[C@@]47[C@@H]6[C@@H]5C[C@]3([C@@H]1O)[C@H]7[C@H]2OC(=O)c1ccccc1
> 20 µM

Request the reported GI50 associated with COC[C@]12CN(C)C3[C@@H]4[C@H](OC)[C@H]1[C@@]3([C@@H](OC)C[C@H]2O)[C@@H]1C[C@@]2(O)[C@H](OC(=O)c3ccccc3)[C@@H]1[C@]4(OC(C)=O)[C@@H](O)[C@@H]2OC
> 20 µM

Data request, read-out GI50, for C=C1[C@H]2C[C@@H]3C4N5C[C@]6(C)CCC[C@@]47[C@@H]6[C@@]5(O)C[C@]3([C@@H]1O)[C@H]7[C@H]2OC(=O)c1cccc(C(F)(F)F)c1
6.8 µM

If you can, please state the reported GI50 value of CCN1C[C@]2(COC)CC[C@H](O)[C@]34C1[C@@](O)([C@@H](OC)[C@H]23)[C@@]1(O)C[C@H](OC)[C@H]2C[C@@H]4[C@@H]1[C@H]2OC .
> 20 µM

Continuing:
Given C=C1[C@H]2C[C@H]3C4N5C[C@]6(C)CCC[C@]47[C@H]([C@H]2OC(=O)c2ccc(OC)c(OC)c2)C3(C[C@]5(O)[C@H]67)[C@@H]1O , state its recorded GI50.
10 µM

====

System: A549
assay: Antiproliferative activity against human A549 cells by sulforhodamine B assay
Assay type: functional
The compounds listed here are annotated with their GI50.

Reference set, count: 2
Can you look up GI50 on A549 for C=C1[C@H]2C[C@@H]3C4N5C[C@]6(C)CCC[C@@]47[C@@H]6[C@@H]5C[C@]3([C@@H]1O)[C@H]7[C@H]2OC(=O)c1cccc(C(F)(F)F)c1 ?
> 20 µM

Give GI50 (A549) of the following compound: C=C1[C@H]2C[C@@]3([C@@H]1OC(=O)c1ccccc1)[C@@H](C[C@@H]2OC(=O)c1ccccc1)[C@@]12C4[C@@H]3C[C@@H]1[C@@](C)(CC[C@@H]2O)CN4CC
> 20 µM

We now examine a further compound.
So what GI50 did C=C1[C@H]2C[C@@H]3C4N5C[C@]6(C)CCC[C@@]47[C@@H]6[C@@]5(OC(=O)c4ccc(OC)cc4)C[C@]3([C@@H]1O)[C@H]7[C@H]2OC(=O)c1ccc(OC)cc1 get with A549?
> 20 µM

====

assay: Antiproliferative activity against multidrug-resistant P-gp expressing human KBVIN cells by sulforhodamine B assay
Format: functional
In this section we review reported GI50 values for a set of compounds.

Examples with answers:
Which GI50 value belongs to CCN1C[C@]2(COC)CC[C@H](OC)[C@]34C1C([C@H](OC)[C@H]23)[C@]1(OC(C)=O)[C@H]2[C@@H](OC(=O)c3ccccc3)[C@](O)(C[C@H]24)[C@@H](OC)[C@@H]1O [DEOXYACONITINE] ?
> 20 µM

Any idea what its GI50 is? The compound is CCN1C2OC3CCC2(COC)[C@H]2[C@H](OC)[C@]4(O)C1[C@@]32[C@@H]1C[C@H]2[C@H](O)[C@@H]1[C@]4(O)C[C@@H]2OC
> 20 µM

Read the next record carefully.
Which GI50 value is on record for CCN1C[C@]2(COC)CC[C@H](O)[C@]34C1[C@@](O)([C@@H](OC)[C@H]23)[C@@]1(O)C[C@H](OC)[C@H]2C[C@@H]4[C@@H]1[C@H]2OC [DELSOLINE] ?
> 20 µM

====

The reader will find reported GI50 values listed item by item below.
Test system: A549
assay: Antiproliferative activity against human A549 cells by sulforhodamine B assay
Format: functional

# count of solved cases: 2
Which GI50 is reported with A549 for this entry: CCN1C[C@]2(COC)CC[C@H](OC)[C@]34C1[C@@](O)([C@@H](OC)[C@H]23)[C@@]1(O)C[C@H](OC)[C@H]2C[C@@H]4[C@@H]1[C@H]2OC(C)=O ?
> 20 µM

Checklist item: GI50 tested on A549, entry C=C1[C@H]2C[C@@H]3C4N5C[C@]6(C)CCC[C@@]47[C@@H]6[C@@]5(O)C[C@]3([C@@H]1OC(C)=O)[C@H]7[C@H]2O , value?
> 20 µM

Here is the next item to consider.
Give GI50 (A549) of the following compound: CCN1C[C@]2(COC)[C@H](O)C[C@H](OC(C)=O)[C@]34C1[C@@](O)([C@@H](OC)[C@H]23)[C@@]1(O)C[C@H](OC)[C@H]2C[C@@H]4[C@@H]1[C@H]2O
> 20 µM

====

GI50 values by entry
System: A549
assay: Antiproliferative activity against human A549 cells by sulforhodamine B assay
Assay type: functional

API: value(readout= GI50, system= A549, query= CCN1C[C@]2(COC)[C@H](O)C[C@H](OC(C)=O)[C@]34C1[C@@](O)([C@@H](OC)[C@H]23)[C@@]1(O)C[C@H](OC)[C@H]2C[C@@H]4[C@@H]1[C@H]2OC(C)=O )
> 20 µM

Others:
What value of GI50 on A549 does C=C1[C@H]2C[C@@H]3C4N5C[C@]6(C)CCC[C@@]47[C@@H]6[C@@H]5C[C@]3([C@@H]1OC(=O)c1ccc(F)cc1)[C@H]7[C@H]2O have?
> 20 µM

# query: GI50 | item CCN1C[C@]2(COC)[C@H](O)C[C@H](OC)[C@]34C1[C@H]([C@H](OC)[C@H]23)[C@]1(OC(C)=O)[C@H]2[C@@H](OC(=O)c3ccc(OC)cc3)[C@](O)(C[C@H]24)[C@@H](OC)[C@@H]1O | system: A549
> 20 µM

====

Measured GI50 accompanies every entry in the list below.
Tested on: A549
assay: Antiproliferative activity against human A549 cells by sulforhodamine B assay
Type: functional

Sample records with GI50:
Given the entry C=C1[C@H]2C[C@@]3([C@@H]1OC(C)=O)[C@@H](C[C@@H]2OC(C)=O)[C@@]12C4[C@@H]3C[C@@H]1[C@@](C)(CC[C@@H]2O)CN4CC , report its measured GI50.
> 20 µM

Which measured GI50 value corresponds to C=C1[C@H]2C[C@@H]3C4N5C[C@]6(C)CCC[C@@]47[C@@H]6[C@@H]5C[C@]3([C@@H]1O)[C@H]7[C@H]2OC(=O)c1ccccc1C(F)(F)F ?
> 20 µM

// GI50 lookup, key: CCN1C[C@]2(C)CC[C@H](OC)[C@@]34[C@@H]5C[C@H]6[C@H](OC)[C@@H]5[C@@]5(C[C@@H]6OC)OCO[C@@]5([C@@H](OC(=O)c5cccc(C(F)(F)F)c5)[C@H]23)[C@@H]14
10 µM

Entry CC1[C@H]2C[C@@H]3C4N5C[C@]6(C)CCC[C@@]47[C@@H]6[C@@]5(O)C[C@]3([C@@H]1O)[C@H]7[C@H]2O (stereo not given in full) has what GI50?
> 20 µM

Now for a further compound.
Form field: reported GI50 of CCN1C(=O)[C@]2(COC(=O)c3ccccc3N)CC[C@H](OC)[C@]34C1[C@@](O)([C@@H](OC)[C@H]23)[C@@]1(O)C[C@H](OC)[C@H]2C[C@@H]4[C@@H]1[C@H]2OC
> 20 µM
